Where these numbers come from: ChEMBL document CHEMBL5346969

System: MDA-MB-468
experimental.protocol: Antiproliferative activity against human MDA-MB-468 cells assessed as inhibition of cell viability incubated for 72 hrs by CCK-8 assay
Format: functional, cell-based
test.conditions: MDA-MB-468, 72 h
measurement.type: IC50 (nM)

Here are 3 compounds together with their reported answers.
COc1ccc(N(C(=O)CCl)c2ccc(OC)c(OC)c2)cc1Cl ... 180
COc1ccc(CN(C(=O)CCl)c2ccc(Cl)cc2)cc1Cl ... 510
COc1ccc(N(Cc2ccc(Cl)cc2)C(=O)CCl)cc1Cl ... 510

a: COc1ccc(N(Cc2ccc(OC)c(OC)c2)C(=O)CCl)cc1Cl
b: COc1ccc(N(C(=O)CCl)c2ccc(Cl)cc2)cc1Cl
c: COC(=O)c1ccc([C@H]2c3[nH]c4ccccc4c3C[C@H](C(=O)OC)N2C(=O)CCl)cc1
d: COc1ccc(CN(C(=O)CCl)c2ccc3c(c2)OCO3)cc1Cl
// query Kindly order the items shown according to IC50, from the highest value down. Response format: the labels, sorted as the prompt asks.
// result b, a, d, c
